Test system: Pseudomonas aeruginosa (ATCC27853)
experiment.description: microbe, parasite or virus in culture
Type: cell-based
measured.property: MBC

- molecule: "CC(C)=CCC[C@H](C)CC(=O)NC1C(OC2OC(C[C@@H](O)[C@H]3O[C@@H](n4ccc(=O)[nH]c4=O)[C@H](O)[C@@H]3O)C(O)C(O)[C@H]2NC(=O)C[C@@H](C)CCC=C(C)C)OC(CO)[C@@H](O)C1O (stereo partly shown) [Compound E1, Di-N-citronoyl-tunicamycin]"
  result: "> 400 µg/mL"
- molecule: "CCCCCCCCC(=O)NC1C(OC2OC(C[C@@H](O)[C@H]3O[C@@H](n4ccc(=O)[nH]c4=O)[C@H](O)[C@@H]3O)C(O)C(O)[C@H]2NC(=O)CCCCCCCC)OC(CO)[C@@H](O)C1O (stereo partly shown)"
  result: "400 µg/mL"
- molecule: "CCCCCCCC(=O)NC1C(OC2OC(C[C@@H](O)[C@H]3O[C@@H](n4ccc(=O)[nH]c4=O)[C@H](O)[C@@H]3O)C(O)C(O)[C@H]2NC(=O)CCCCCCC)OC(CO)[C@@H](O)C1O (stereo partly shown)"
  result: "> 400 µg/mL"
- molecule: "CCCCCCCCCCCC(=O)NC1C(OC2OC(C[C@@H](O)[C@H]3O[C@@H](n4ccc(=O)[nH]c4=O)[C@H](O)[C@@H]3O)C(O)C(O)[C@H]2NC(=O)CCCCCCCCCCC)OC(CO)[C@@H](O)C1O (stereo partly shown)"
  result: "> 400 µg/mL"

###

Test system: Pseudomonas aeruginosa (ATCC27853)
experiment.description: Kirby-Bauer disc diffusion susceptibility test
Type: cell-based
measurement.setup: 6 mm disc, 5 μg

- molecule: "CCCCCCCCCCCC(=O)NC1C(OC2OC(C[C@@H](O)[C@H]3O[C@@H](n4ccc(=O)[nH]c4=O)[C@H](O)[C@@H]3O)C(O)C(O)[C@H]2NC(=O)CCCCCCCCCCC)OC(CO)[C@@H](O)C1O (stereo partly drawn)"
  study.target: "Pseudomonas aeruginosa (ATCC27853)"
  Diffusion distance (mm): 8
- molecule: "CCCCCCCCCCC(=O)NC1C(OC2OC(C[C@@H](O)[C@H]3O[C@@H](n4ccc(=O)[nH]c4=O)[C@H](O)[C@@H]3O)C(O)C(O)[C@H]2NC(=O)CCCCCCCCCC)OC(CO)[C@@H](O)C1O (stereo partly drawn)"
  study.target: "Pseudomonas aeruginosa (ATCC27853)"
  Diffusion distance (mm): 12
- molecule: "CCCCCCCC(=O)NC1C(OC2OC(C[C@@H](O)[C@H]3O[C@@H](n4ccc(=O)[nH]c4=O)[C@H](O)[C@@H]3O)C(O)C(O)[C@H]2NC(=O)CCCCCCC)OC(CO)[C@@H](O)C1O (stereo partly drawn)"
  study.target: "Pseudomonas aeruginosa (ATCC27853)"
  Diffusion distance (mm): 9
- molecule: "CCCCCCCCC(=O)NC1C(OC2OC(C[C@@H](O)[C@H]3O[C@@H](n4ccc(=O)[nH]c4=O)[C@H](O)[C@@H]3O)C(O)C(O)[C@H]2NC(=O)CCCCCCCC)OC(CO)[C@@H](O)C1O (stereo partly drawn)"
  study.target: "Pseudomonas aeruginosa (ATCC27853)"
  Diffusion distance (mm): 13
- molecule: "CCCCCCC(=O)NC1C(OC2OC(C[C@@H](O)[C@H]3O[C@@H](n4ccc(=O)[nH]c4=O)[C@H](O)[C@@H]3O)C(O)C(O)[C@H]2NC(=O)CCCCCC)OC(CO)[C@@H](O)C1O (stereo partly drawn) [Compound E2, Di-N-heptanoyl tunicamycin]"
  study.target: "Pseudomonas aeruginosa (ATCC27853)"
  Diffusion distance (mm): 7
- molecule: "CCCCCCCCCC(=O)NC1C(OC2OC(C[C@@H](O)[C@H]3O[C@@H](n4ccc(=O)[nH]c4=O)[C@H](O)[C@@H]3O)C(O)C(O)[C@H]2NC(=O)CCCCCCCCC)OC(CO)[C@@H](O)C1O (stereo partly drawn)"
  study.target: "Pseudomonas aeruginosa (ATCC27853)"
  Diffusion distance (mm): 12

###

Minimum lethal dose overview
System: HepG2 liver cells
experiment.description: Cell proliferation assay / cell morphology (cytotoxicity)
Type: cell-based, human
measurement.setup: HepG2
measured.property: Minimum lethal dose

- compound: "CCCCCCCCCCC(=O)NC1C(OC2OC(C[C@@H](O)[C@H]3O[C@@H](n4ccc(=O)[nH]c4=O)[C@H](O)[C@@H]3O)C(O)C(O)[C@H]2NC(=O)CCCCCCCCCC)OC(CO)[C@@H](O)C1O (stereo partly drawn)"
  measured.property: "Minimum lethal dose"
  result: ">400 µg/mL"
- compound: "CCCCCCCC(=O)NC1C(OC2OC(C[C@@H](O)[C@H]3O[C@@H](n4ccc(=O)[nH]c4=O)[C@H](O)[C@@H]3O)C(O)C(O)[C@H]2NC(=O)CCCCCCC)OC(CO)[C@@H](O)C1O (stereo partly drawn)"
  measured.property: "Minimum lethal dose"
  result: ">400 µg/mL"
- compound: "CCCCCCCCCCCC(=O)NC1C(OC2OC(C[C@@H](O)[C@H]3O[C@@H](n4ccc(=O)[nH]c4=O)[C@H](O)[C@@H]3O)C(O)C(O)[C@H]2NC(=O)CCCCCCCCCCC)OC(CO)[C@@H](O)C1O (stereo partly drawn)"
  measured.property: "Minimum lethal dose"
  result: ">400 µg/mL"

###

System: Bacillus cereus (ATCC11778)
experiment.description: microbe, parasite or virus in culture
Format: cell-based
measurement.setup: MH broth, 35° C., 20-24 hours

- compound: "CC(C)=CCC[C@H](C)CC(=O)NC1C(OC2OC(C[C@@H](O)[C@H]3O[C@@H](n4ccc(=O)[nH]c4=O)[C@H](O)[C@@H]3O)C(O)C(O)[C@H]2NC(=O)C[C@@H](C)CCC=C(C)C)OC(CO)[C@@H](O)C1O (stereo partly shown) [Compound E1, Di-N-citronoyl-tunicamycin]"
  study.target: "Bacillus cereus (ATCC11778)"
  MIC (µg/mL): 100
- compound: "CCCCCCCCCC(=O)NC1C(OC2OC(C[C@@H](O)[C@H]3O[C@@H](n4ccc(=O)[nH]c4=O)[C@H](O)[C@@H]3O)C(O)C(O)[C@H]2NC(=O)CCCCCCCCC)OC(CO)[C@@H](O)C1O (stereo partly shown)"
  study.target: "Bacillus cereus (ATCC11778)"
  MIC (µg/mL): 0.39
- compound: "CCCCCCCCCCC(=O)NC1C(OC2OC(C[C@@H](O)[C@H]3O[C@@H](n4ccc(=O)[nH]c4=O)[C@H](O)[C@@H]3O)C(O)C(O)[C@H]2NC(=O)CCCCCCCCCC)OC(CO)[C@@H](O)C1O (stereo partly shown)"
  study.target: "Bacillus cereus (ATCC11778)"
  MIC (µg/mL): 0.78
- compound: "CCCCCCCCCCCC(=O)NC1C(OC2OC(C[C@@H](O)[C@H]3O[C@@H](n4ccc(=O)[nH]c4=O)[C@H](O)[C@@H]3O)C(O)C(O)[C@H]2NC(=O)CCCCCCCCCCC)OC(CO)[C@@H](O)C1O (stereo partly shown)"
  study.target: "Bacillus cereus (ATCC11778)"
  MIC (µg/mL): 50
- compound: "CCCCCCCCC(=O)NC1C(OC2OC(C[C@@H](O)[C@H]3O[C@@H](n4ccc(=O)[nH]c4=O)[C@H](O)[C@@H]3O)C(O)C(O)[C@H]2NC(=O)CCCCCCCC)OC(CO)[C@@H](O)C1O (stereo partly shown)"
  study.target: "Bacillus cereus (ATCC11778)"
  MIC (µg/mL): 0.78
- compound: "CCCCCCC(=O)NC1C(OC2OC(C[C@@H](O)[C@H]3O[C@@H](n4ccc(=O)[nH]c4=O)[C@H](O)[C@@H]3O)C(O)C(O)[C@H]2NC(=O)CCCCCC)OC(CO)[C@@H](O)C1O (stereo partly shown) [Compound E2, Di-N-heptanoyl tunicamycin]"
  study.target: "Bacillus cereus (ATCC11778)"
  MIC (µg/mL): 100
- compound: "CCCCCCCC(=O)NC1C(OC2OC(C[C@@H](O)[C@H]3O[C@@H](n4ccc(=O)[nH]c4=O)[C@H](O)[C@@H]3O)C(O)C(O)[C@H]2NC(=O)CCCCCCC)OC(CO)[C@@H](O)C1O (stereo partly shown)"
  study.target: "Bacillus cereus (ATCC11778)"
  MIC (µg/mL): 6.25

From: patent US10954262B2
